# tested_on: Human Calpain 2/NS1 (Homo sapiens, UniProt P17655)
# Sequence (P17655 whole entry): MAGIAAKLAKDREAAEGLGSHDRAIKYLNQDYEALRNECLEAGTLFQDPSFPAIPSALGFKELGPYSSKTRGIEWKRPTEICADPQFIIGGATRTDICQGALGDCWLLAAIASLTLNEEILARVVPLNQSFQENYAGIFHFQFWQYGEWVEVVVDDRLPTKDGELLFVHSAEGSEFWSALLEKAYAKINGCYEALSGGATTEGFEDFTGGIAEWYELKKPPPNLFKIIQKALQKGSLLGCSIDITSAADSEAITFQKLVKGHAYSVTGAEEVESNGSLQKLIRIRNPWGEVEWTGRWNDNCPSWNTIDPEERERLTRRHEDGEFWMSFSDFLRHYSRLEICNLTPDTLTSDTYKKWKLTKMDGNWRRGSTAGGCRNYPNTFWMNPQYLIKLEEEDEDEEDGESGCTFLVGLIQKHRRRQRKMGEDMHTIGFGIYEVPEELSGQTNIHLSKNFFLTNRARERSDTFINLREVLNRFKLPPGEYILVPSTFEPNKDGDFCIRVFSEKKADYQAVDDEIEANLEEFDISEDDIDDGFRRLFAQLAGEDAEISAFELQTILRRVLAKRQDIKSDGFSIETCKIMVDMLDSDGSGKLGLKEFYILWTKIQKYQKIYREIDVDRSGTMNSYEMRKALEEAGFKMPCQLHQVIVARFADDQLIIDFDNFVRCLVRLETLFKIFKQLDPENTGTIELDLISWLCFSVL
# Sequence (P04632 whole entry partner): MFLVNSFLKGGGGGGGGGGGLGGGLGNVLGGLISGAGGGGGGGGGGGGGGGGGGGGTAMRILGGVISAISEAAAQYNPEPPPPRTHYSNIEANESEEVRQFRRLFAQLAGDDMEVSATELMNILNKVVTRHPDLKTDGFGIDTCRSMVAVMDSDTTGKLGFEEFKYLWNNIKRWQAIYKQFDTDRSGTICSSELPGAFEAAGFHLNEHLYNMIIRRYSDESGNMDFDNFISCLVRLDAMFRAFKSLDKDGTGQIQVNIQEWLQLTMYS
# experimental_protocol: Calpain inhibition continuous fluorescence (FRET) assay, Human Calpain 2/NS1
# Format: biochemical
# assay_conditions: Column B; read-out: Human Calpain 2/NS1 IC50
endpoint_name: IC50

>>> result("NC(=O)C(=O)[C@H](Cc1ccccc1)NC(=O)c1scnc1-n1cc(-c2ccccc2)cn1 [Compound 39]")
"< 3 µM"

Request: Item under review: Cc1cc(C(=O)N[C@@H](Cc2ccccc2)C(=O)C(N)=O)nn1-c1nc2ccccc2[nH]1 [Compound 264] . Reported IC50?
Response: 3 to 10 µM

Request: Item under review: NC(=O)C(=O)[C@H](Cc1ccccc1)NC(=O)c1scnc1-c1ccccc1 [Compound 18] . Reported IC50?
Response: < 3 µM

Request: Item under review: NC(=O)C(=O)[C@H](Cc1ccccc1)NC(=O)c1scnc1-n1cc2ccccc2n1 [Compound 37] . Reported IC50?
Response: < 3 µM
